B1: tRNA (parent)
chain: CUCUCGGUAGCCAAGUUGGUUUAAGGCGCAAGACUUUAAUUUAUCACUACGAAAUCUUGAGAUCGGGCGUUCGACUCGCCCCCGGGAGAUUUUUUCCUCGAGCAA

- Variants of: B1
- methodSummary: nonsense suppression (GFP-seq) (ratio to wild type); higher = more function; SUP4oc tRNA, yeast GFP reporter sort-seq
This sample holds only a part of the variants without activity.
In this section we review reported nonsense suppression values for a set of variants.
Write the value as a bare number.

In the examples that follow, each entry is paired with its recorded nonsense suppression.
> print(dat)
      change            resulttype  recordedmeasurement
1       G85A  nonsense suppression                0.982
2       G78U  nonsense suppression                 0.63
3   U2C A24C  nonsense suppression               0.0326
4  C29U C83U  nonsense suppression               0.0384

Which measured nonsense suppression value corresponds to U22A G86U ?
0.033

Which measured nonsense suppression value corresponds to C80U A87U ?
0.035

Which measured nonsense suppression value corresponds to A54U G84U ?
0.0565

Which measured nonsense suppression value corresponds to A9G G10A ?
0.0344

Which measured nonsense suppression value corresponds to C29U U63C G85A ?
0.849
